This collection of values is drawn from ChEMBL document CHEMBL4665865.

Kindly supply the reported IC50 values for the records listed here.
# System: HepG2
# Method summary: Antitumor activity against human HepG2 cells assessed as inhibition of cell viability by MTT assay
# Type: functional, cell-based
Numbers only, in µM.

Smiles data: Cc1cc(NC2=NC(=O)/C(=C\c3c4ccccc4cc4ccccc34)S2)no1
IC50 / µM: 6.86
//
Smiles data: CN1CCN(CC(=O)Nc2cc(C(C)(C)C)on2)CC1
IC50 / µM: 65.3

Value sought for every listed compound: IC50.
1. Cc1cc(NC2=NC(=O)/C(=C\c3ccco3)S2)no1
2. Cc1cc(NC(=O)CCN2CCN(Cc3ccccc3)CC2)no1
3. CC(C)(C)c1cc(NC(=O)CCCl)no1

Ans:
1: 41.6; 2: 89.4; 3: 74.8

Could I get IC50 for every one of these entries?
1. CC(C)(C)c1cc(NC(=O)CCN2CCN(c3ccccc3)CC2)no1
2. CC(C)(C)c1cc(NC(=O)CCN2CCOCC2)no1

Ans:
[37.1, 93.5]

----------
# Assay system: Epidermal growth factor receptor (Homo sapiens, UniProt P00533)
# Sequence (P00533 whole entry): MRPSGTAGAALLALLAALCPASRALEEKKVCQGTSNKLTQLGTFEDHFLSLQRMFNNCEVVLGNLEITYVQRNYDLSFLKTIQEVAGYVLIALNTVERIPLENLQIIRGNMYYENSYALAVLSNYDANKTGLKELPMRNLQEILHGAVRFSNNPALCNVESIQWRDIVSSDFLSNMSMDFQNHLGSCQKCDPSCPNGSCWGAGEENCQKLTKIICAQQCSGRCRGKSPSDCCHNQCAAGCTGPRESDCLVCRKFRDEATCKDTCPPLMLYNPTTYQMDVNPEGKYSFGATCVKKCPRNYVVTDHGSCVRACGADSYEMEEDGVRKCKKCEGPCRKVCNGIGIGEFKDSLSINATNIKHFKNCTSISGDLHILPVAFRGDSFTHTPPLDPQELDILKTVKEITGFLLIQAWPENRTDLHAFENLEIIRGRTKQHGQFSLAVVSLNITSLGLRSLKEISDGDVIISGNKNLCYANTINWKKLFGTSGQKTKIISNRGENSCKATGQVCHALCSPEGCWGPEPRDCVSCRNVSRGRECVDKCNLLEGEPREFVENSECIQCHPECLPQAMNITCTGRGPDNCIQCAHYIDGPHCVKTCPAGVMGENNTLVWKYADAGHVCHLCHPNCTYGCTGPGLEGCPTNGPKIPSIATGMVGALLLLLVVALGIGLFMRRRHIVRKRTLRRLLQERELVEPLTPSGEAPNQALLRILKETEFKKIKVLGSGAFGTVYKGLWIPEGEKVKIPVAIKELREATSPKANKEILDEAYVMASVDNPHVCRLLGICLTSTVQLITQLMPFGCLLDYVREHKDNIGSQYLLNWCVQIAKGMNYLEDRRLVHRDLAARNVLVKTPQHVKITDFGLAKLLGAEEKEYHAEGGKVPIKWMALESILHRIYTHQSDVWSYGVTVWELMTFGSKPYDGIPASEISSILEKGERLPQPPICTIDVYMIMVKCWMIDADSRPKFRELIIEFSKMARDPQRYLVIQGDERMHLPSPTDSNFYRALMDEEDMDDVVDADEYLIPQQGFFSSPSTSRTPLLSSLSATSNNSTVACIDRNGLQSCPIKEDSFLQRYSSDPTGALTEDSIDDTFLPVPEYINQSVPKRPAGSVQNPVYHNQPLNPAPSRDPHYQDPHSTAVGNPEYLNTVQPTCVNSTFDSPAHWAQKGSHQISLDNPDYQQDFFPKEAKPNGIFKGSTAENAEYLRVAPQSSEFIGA
Observation type: pIC50
Give bare numbers, as −log10 of the molar value.

Smiles data: Cc1cc(NC2=NC(=O)/C(=C\c3c4ccccc4cc4ccccc34)S2)no1
pIC50: 7.27
//
Smiles data: CCN1CCN(CC(=O)Nc2cc(C)on2)CC1
pIC50: 7.09
//
Smiles data: Cc1cc(NC2=NC(=O)CS2)no1
pIC50: 7.09
//
Smiles data: CC(C)(C)c1cc(NC(=O)CN2CCOCC2)no1
pIC50: 6.84

pIC50 for Cc1cc(NC(=O)CCl)no1 is 6.97

----------
# Method summary: Lipophilicity, logP of the compound
# Assay type: physicochemical
# Particulars: octanol/water
Observation type: logP
Give bare numbers.

For each of the compounds below, state logP.
1. Cc1cc(NC(=O)CN2CCOCC2)no1
2. CCN1CCN(CCC(=O)Nc2cc(C(C)(C)C)on2)CC1
3. CC(C)(C)c1cc(NC2=NC(=O)/C(=C\c3ccc4ccccc4c3)S2)no1
4. CC(C)(C)c1cc(NC(=O)CN2CCN(Cc3ccccc3)CC2)no1
5. Cc1cc(NC(=O)CCN2CCN(c3ccccc3)CC2)no1
6. Cc1cc(NC(=O)CCN2CCN(C)CC2)no1

Ans:
1. 0.19
2. 2.24
3. 5.89
4. 3.36
5. 1.84
6. 0.14

// each compound listed below needs its logP
1. Cc1cc(NC(=O)CCN2CCN(Cc3ccccc3)CC2)no1
2. CC(C)(C)c1cc(NC2=NC(=O)CS2)no1
3. Cc1cc(NC(=O)CN2CCN(Cc3ccccc3)CC2)no1
4. CCN1CCN(CCC(=O)Nc2cc(C)on2)CC1
5. Cc1cc(NC(=O)CCl)no1
6. CCN1CCN(CC(=O)Nc2cc(C)on2)CC1
7. Cc1cc(NC2=NC(=O)/C(=C\c3ccc(-c4ccccc4)cc3)S2)no1
8. CC(C)(C)c1cc(NC(=O)CCN2CCN(Cc3ccccc3)CC2)no1

Ans:
1.54
1.97
1.63
0.51
0.55
0.61
4.78
3.26

Quick batch: logP for everything below.
1. Cc1ccc(/C=C2/SC(Nc3cc(C(C)(C)C)on3)=NC2=O)cc1
2. CN1CCN(CC(=O)Nc2cc(C(C)(C)C)on2)CC1
3. CC(C)(C)c1cc(NC2=NC(=O)/C(=C\c3ccc(Br)cc3)S2)no1
4. CC(C)(C)c1cc(NC(=O)CN2CCN(c3ccccc3)CC2)no1

Ans:
[5.15, 1.96, 5.51, 3.66]
